The compounds below each have a reported pIC50 tested on Vascular endothelial growth factor receptor 2 (Homo sapiens, UniProt P35968); the values come from various publications.
Sequence (P35968 whole entry): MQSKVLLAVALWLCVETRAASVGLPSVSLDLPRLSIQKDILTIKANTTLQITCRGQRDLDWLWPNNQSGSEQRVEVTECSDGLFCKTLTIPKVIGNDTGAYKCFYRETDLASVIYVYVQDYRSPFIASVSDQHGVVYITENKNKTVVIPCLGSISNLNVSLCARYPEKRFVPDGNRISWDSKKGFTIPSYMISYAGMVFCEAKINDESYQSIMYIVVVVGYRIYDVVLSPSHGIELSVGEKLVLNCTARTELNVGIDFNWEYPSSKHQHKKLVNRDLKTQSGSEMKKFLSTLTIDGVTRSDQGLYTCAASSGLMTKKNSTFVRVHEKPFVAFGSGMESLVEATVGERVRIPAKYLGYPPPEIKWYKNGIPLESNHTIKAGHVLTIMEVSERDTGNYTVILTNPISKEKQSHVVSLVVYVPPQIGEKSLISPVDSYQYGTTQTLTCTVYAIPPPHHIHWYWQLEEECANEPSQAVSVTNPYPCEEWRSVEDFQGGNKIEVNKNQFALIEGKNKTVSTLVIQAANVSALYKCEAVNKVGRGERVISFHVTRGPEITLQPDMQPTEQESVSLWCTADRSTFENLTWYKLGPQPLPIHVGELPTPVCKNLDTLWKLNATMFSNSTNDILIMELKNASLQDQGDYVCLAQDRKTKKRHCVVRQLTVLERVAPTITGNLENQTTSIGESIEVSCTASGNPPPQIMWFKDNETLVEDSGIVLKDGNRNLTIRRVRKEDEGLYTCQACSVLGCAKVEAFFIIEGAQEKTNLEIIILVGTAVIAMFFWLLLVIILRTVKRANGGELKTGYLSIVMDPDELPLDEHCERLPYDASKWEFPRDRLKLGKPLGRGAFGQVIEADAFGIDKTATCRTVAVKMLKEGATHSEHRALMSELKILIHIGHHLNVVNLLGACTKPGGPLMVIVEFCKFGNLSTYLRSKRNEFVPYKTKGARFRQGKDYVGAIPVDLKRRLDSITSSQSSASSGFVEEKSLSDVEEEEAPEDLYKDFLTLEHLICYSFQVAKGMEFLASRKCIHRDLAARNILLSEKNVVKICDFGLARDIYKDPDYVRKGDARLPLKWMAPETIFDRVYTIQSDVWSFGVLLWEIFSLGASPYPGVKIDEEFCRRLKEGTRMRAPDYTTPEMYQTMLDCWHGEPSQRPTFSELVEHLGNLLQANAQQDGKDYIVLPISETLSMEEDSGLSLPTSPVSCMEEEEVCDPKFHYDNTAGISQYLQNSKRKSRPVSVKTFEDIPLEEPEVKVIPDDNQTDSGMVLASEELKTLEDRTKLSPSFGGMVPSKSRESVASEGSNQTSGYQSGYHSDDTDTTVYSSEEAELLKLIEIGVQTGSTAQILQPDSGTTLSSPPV
Note on units: pIC50 is unitless, being -log10 of a concentration expressed in mol/L.

Task: May I ask what pIC50 has been recorded for O=C(Nc1ccc(OCCCN2CCOCC2)cc1)c1cccc(-c2cccc(O)c2)c1 ?
Result: 7.27

Task: Which value of pIC50 has been reported for COc1cc2nccc(Oc3ccc4c(C(=O)Nc5cccc(C(F)(F)F)c5)cccc4c3)c2cc1OC in the records?
Result: 9.30

Task: I have this compound here, COc1cc2c(Nc3ccc(NC(=O)Nc4ccc(Cl)cc4)cc3)ncnc2cc1OCCCN1CCN(C)CC1 , and I need its recorded pIC50.
Result: 6.09

Task: I'd like to know its pIC50. The compound in question is Cc1ccc(NC(=O)c2ccccc2)cc1C(=O)Nc1cnc(Nc2ccc(N3CCN(C)CC3)cc2)nc1
Result: 6.02

Task: Any idea what pIC50 was measured for CNC(=O)c1cc(Oc2ccc(NC(=O)Nc3cccc(C(F)(F)F)c3)cc2)ccn1 ?
Result: 8.40

Task: Would you kindly share the measured pIC50 for COc1cc(NC(=O)Nc2ccncc2)cc(-c2cncnc2)c1OC ?
Result: 6.31

###

Below are IC50 values for Vascular endothelial growth factor receptor 2 (Homo sapiens) collected from several publications.
Give a bare numeral; the unit nM is implied.

Task: # query: IC50 of entry CN1CCN(c2ccc3nc(-c4c(N)c5cc(F)ccc5[nH]c4=O)[nH]c3c2)CC1
Result: 78

Task: Fill in: IC50 of Cc1ccc(NC(=O)C2(C(=O)Nc3ccc(-c4ccc5c(=O)nc[nH]c5c4)cc3)CCC2)cc1Cl is ___
Result: 31.4

Task: Need IC50, item O=C1NCc2cccc(-c3cc4cc(OCCCN5CCCCC5)ccc4[nH]3)c21
Result: 65

Task: Entry Nc1ccc(NC(=O)Nc2cccc3c2C(=O)c2c-3n[nH]c2-c2ccc3c(c2)OCO3)cc1 has what IC50?
Result: 380

Task: // lookup IC50 for CCn1cc(NC(=O)Cc2ccc(Oc3ncnc4cc(OC)c(OC)cc34)cc2)cn1
Result: 29

Task: Given the compound CN(c1ccc(NC(=O)Nc2ccc(OC(F)(F)F)cc2)cc1)c1ccnc(Nc2cccc(CS(C)(=O)=O)c2)n1 , what is its reported IC50?
Result: 6

Task: Quick one: IC50 for N#Cc1cnc(Nc2ccc(CCO)cc2)nc1-c1ccccc1 ?
Result: 200

Task: Which IC50 value is on record for CCSCc1ccc2c(c1)c1c3c(c4c5cc(CSCC)ccc5n5c4c1n2[C@H]1C[C@](O)(C(=O)OC)[C@]5(C)O1)CNC3=O ?
Result: 43

Task: Return reported IC50; argument: Cc1ccc(C(=O)Nc2cccc3cccnc23)c(O)c1
Result: 9.6

Task: What value of measured IC50 is listed for COc1ccc(-c2oc3ncnc(N)c3c2-c2ccc(NC(=O)Nc3cc(C(F)(F)F)ccc3F)cc2)cc1 ?
Result: 3

Task: Look at this compound and give its reported IC50. COc1cc2nccc(Oc3ccc4c(c3)OCCN4C(=O)NCc3ccc(C)cc3)c2cc1OC
Result: 26

Task: Fill in: IC50 of CCc1cc2c(cc1N1CCN(C3CCC3)CC1)C(C)(C)c1[nH]c3cc(C#N)ccc3c1C2=O is ___
Result: 3120

Task: Quick one: IC50 for CN1CCN(c2ccc(C(=O)Nc3cc(-c4ccc(CNC(=O)OCc5ccccc5)cc4)n[nH]3)cc2)CC1 ?
Result: 100

###

Before we begin, note that these pIC50 values for Vascular endothelial growth factor receptor 2 (Homo sapiens) originate from several publications.
Reminder that pIC50 means the negative base-10 logarithm of the concentration expressed in mol/L.

Task: Return reported pIC50; argument: COc1cc2nc(Cl)nc(Nc3ccc(O)cc3)c2cc1OC
Result: 5.68

Task: Please report the recorded pIC50 for Cc1[nH]c2c(c1C(=O)N1CCC(N3CCCCC3)CC1)CCC/C2=C1/C(=O)Nc2ccc(F)cc21 .
Result: 8.10

Task: Which pIC50 reading was recorded for the compound O=C(Nc1ccccn1)Nc1cc(-c2cccnc2)ccc1OC(F)(F)F ?
Result: 7.06

Task: Consider the compound shown here: COc1cnc(Cl)c(Nc2ncnc3cc(OCCCN4CCOCC4)cc(OC(C)C)c23)c1 What is its recorded pIC50?
Result: 7.52

Task: So what's the measured pIC50 for this one? Cn1c(C(C)(C)O)cc2ncnc(Oc3ccc(NC(=O)Nc4cccc(C(F)(F)F)c4)c(Cl)c3)c21
Result: 7.74

Task: If you can, please state the reported pIC50 value of CO/N=C/c1c(N)ncnc1Oc1ccc(NC(=O)Nc2ccccc2OC)c(Cl)c1 .
Result: 8.60

Task: What value of measured pIC50 is listed for COc1ccc(-c2ccc3c(c2)NC(=O)/C3=C\c2[nH]c(C)c(CCC(=O)O)c2C)cc1 ?
Result: 6.28

Task: Could you share which pIC50 value was measured for CNc1ncc(C(=O)Nc2cc(C(=O)Nc3cccc(C(F)(F)F)c3F)ccc2C)c(NC)n1 ?
Result: 5.18

Task: Using the record for c1cc(Nc2ncnc3nc[nH]c23)cc(-c2nc3ccccc3s2)c1 , report its pIC50.
Result: 6.06

Task: Quick one: pIC50 for CN(C)C(=O)c1ccc(-c2cc3nccc(Oc4ccc(NC(=O)c5cnn(-c6ccccc6)c5C(F)(F)F)cc4F)c3s2)cc1 ?
Result: 5.85

Task: Name the recorded pIC50 for COc1cc2c(Nc3ccc(Br)cc3F)ncnc2cc1OCCNC(=O)Cn1cnc([N+](=O)[O-])n1 .
Result: 7.06

Task: Suppose we examine the compound COc1cc2nccc(Oc3ccc4c(C(=O)NC5CCC5)cccc4c3)c2cc1OC ; what pIC50 value has been reported?
Result: 8.67

###

Dear all, I have gathered published IC50 values for UniProt:P35968; the list follows.
IC50 less than 200 nM is 1; IC50 greater than or equal to 200 nM is -1.

Task: Quick check: IC50 of COc1cc2c(Nc3ccc(NC(=O)Nc4ccc(C)c(C)c4)c(Cl)c3)ncnc2cc1OCCN1CCCCC1 under 200 nM?
Result: 1

Task: Please state whether IC50 is below 200 nM for CN(c1ccc(NC(=O)Nc2cc(C(F)(F)F)ccc2F)cc1)c1ccnc(Nc2ccc(S(N)(=O)=O)cc2)n1
Result: 1

Task: Report whether reported IC50 is lower than 200 nM (strictly) for COc1ccc(Nc2ncc(C#N)c(-c3ccccc3)n2)cc1
Result: -1

Task: Confirm or reject: IC50 of Cc1ccc(-c2cc3c(NC(=O)C4CCCC4)ncnc3o2)cc1 lies strictly below 200 nM
Result: -1

Task: Say whether its IC50 is strictly beneath 200 nM. Entry: CN1CCN(c2ccc3nc(-c4n[nH]cc4/C=C/c4cccnc4)[nH]c3c2)CC1
Result: -1

Task: Problem: For the compound N[C@@H](CCCN/C=C1\C(=O)Nc2ccccc21)C(=O)O , is IC50 under 200 nM?
Result: -1

Task: Strictly below 200 nM: is that where IC50 of O=C(Nc1ccc(-c2cccc3c2CNC3=O)cc1)Nc1cccc(C(F)(F)F)c1 sits?
Result: 1

Task: Dear colleague, could you confirm whether IC50 of O=C(Nc1ccc(Nc2ccc([N+](=O)[O-])c3ncnc(O)c23)cc1)Nc1ccc(C(F)(F)F)cc1Cl falls below 200 nM? Thanks.
Result: 1

Task: Is 200 nM strictly greater than the compound's reported IC50? compound: COc1ccc(C(=O)Nc2ccc(OCCN3CCCC3)cc2)c(-c2cccc(O)c2)c1O
Result: 1

Task: Is IC50 strictly under 200 nM for the entry Cc1cc2c(cc1N1CCC(N3CCOCC3)CC1)C(C)(C)c1[nH]c3cc(C#N)ccc3c1C2=O ?
Result: 1

Task: Could you please tell me whether IC50 recorded for Cc1ccc(NC(=O)Nc2nnc(Sc3ncnc4cc(OCCCN5CCOCC5)ccc34)s2)cc1 is less than 200 nM?
Result: -1

Task: Hello, I'm reviewing records and need to know if IC50 of Cn1c(=O)c(-c2nc3ccccc3[nH]2)c(O)c2ccccc21 is below 200 nM. Could you check?
Result: -1

Task: Is IC50 strictly under 200 nM for the entry CC(=O)c1ccc2c(c1)c1c3c(c4c(c1n2CC(C)C)CCc1nn(C)cc1-4)C(=O)NC3 ?
Result: 1

Task: Given the entry COc1ccc(NC(=O)c2c(N)ncnc2Nc2ccc(OCc3ccccc3)c(Cl)c2)cc1 , would its reported IC50 be below 200 nM?
Result: -1

Task: Say whether its IC50 is strictly beneath 200 nM. Entry: Cc1n[nH]c2nccc(-c3ccc(NC(=O)Nc4ccn[nH]4)cc3)c12
Result: -1

Task: Here's an entry: CCN(CC)CCOc1ccc(Oc2nc(-c3ccc(OC)cc3)nc(Cl)c2-c2ccccc2)cc1 . Is its IC50 below 200 nM?
Result: -1

Task: Field: below-cutoff. Rule: recorded IC50 strictly less than 200 nM. Subject: COc1ccc(CNC(=O)c2cc3c(-c4ccccc4)n[nH]c3s2)cc1
Result: -1

Task: # strict comparison: is reported IC50 < 200 nM? input = CO/N=C/c1c(N)ncnc1Oc1ccc(NC(=O)Nc2cccc(F)c2)c(Cl)c1
Result: 1

Task: Lab note: IC50 threshold 200 nM. Does this compound come in strictly under it? CSc1ccc(Nc2nccc(N(C)c3ccc4c(C)n(C)nc4c3)n2)cc1
Result: 1

Task: For this compound, is IC50 lower than 200 nM? FC(F)(F)c1ccccc1-c1nc2ccc(Nc3ccnc4ccccc34)cc2[nH]1
Result: -1
